target: Bcr/Abl fusion protein (Homo sapiens, UniProt P00519, T315I); test: Inhibition of BCR-ABL T315I mutant (unknown origin) incubated for 40 mins in presence of [gamma33P]ATP by scintillation method
Consider the cut-off 2000 nM. If the recorded IC50 is strictly smaller, the label is TRUE; if not, the label is FALSE.

Cc1cn(-c2cc(C(=O)Nc3cccc(C#Cc4cccc5[nH]nc(N)c45)c3)cc(C(F)(F)F)c2)cn1    TRUE
Nc1n[nH]c2cccc(C#Cc3cccc(C(=O)Nc4cccc(C(F)(F)F)c4)c3)c12    FALSE
Nc1n[nH]c2cccc(C#Cc3cccc(NC(=O)c4cc(F)cc(C(F)(F)F)c4)c3)c12    FALSE
Nc1n[nH]c2cccc(C#Cc3cccc(NC(=O)c4cc(N5CCOCC5)cc(C(F)(F)F)c4)c3)c12    FALSE
Nc1n[nH]c2cccc(C#Cc3cccc(C(=O)Nc4ccc(CN5CCOCC5)c(C(F)(F)F)c4)c3)c12    TRUE

[ask] Find out if reported IC50 for "Nc1n[nH]c2cccc(C#Cc3cccc(C(=O)Nc4ccc(Cl)c(C(F)(F)F)c4)c3)c12" is less than 2000 nM
[reply] TRUE

[ask] Now this one: "Nc1n[nH]c2cccc(C#Cc3cccc(NC(=O)c4cc(C(F)(F)F)cc(C(F)(F)F)c4)c3)c12"
[reply] FALSE

[ask] Now this one: "Nc1n[nH]c2cccc(C#Cc3cccc(NC(=O)c4cccc(C(F)(F)F)c4)c3)c12"
[reply] FALSE

[ask] Now this one: "Nc1n[nH]c2cccc(C#Cc3cccc(NC(=O)c4ccc(N5CCOCC5)c(C(F)(F)F)c4)c3)c12"
[reply] TRUE

[ask] Now this one: "Nc1n[nH]c2cccc(C#Cc3cccc(C(=O)Nc4cc(CN5CCOCC5)cc(C(F)(F)F)c4)c3)c12"
[reply] FALSE

[ask] Now this one: "CN1CCN(Cc2cc(NC(=O)c3cccc(C#Cc4cccc5[nH]nc(N)c45)c3)cc(C(F)(F)F)c2)CC1"
[reply] TRUE

[ask] Now this one: "Cc1cn(-c2cc(NC(=O)c3cccc(C#Cc4cccc5[nH]nc(N)c45)c3)cc(C(F)(F)F)c2)cn1"
[reply] TRUE

[ask] Now this one: "Nc1n[nH]c2cccc(C#Cc3cccc(C(=O)Nc4cc(C(F)(F)F)cc(C(F)(F)F)c4)c3)c12"
[reply] TRUE

----------
target: Voltage-gated inwardly rectifying potassium channel KCNH2 (Homo sapiens)
Sequence (Q12809 whole entry): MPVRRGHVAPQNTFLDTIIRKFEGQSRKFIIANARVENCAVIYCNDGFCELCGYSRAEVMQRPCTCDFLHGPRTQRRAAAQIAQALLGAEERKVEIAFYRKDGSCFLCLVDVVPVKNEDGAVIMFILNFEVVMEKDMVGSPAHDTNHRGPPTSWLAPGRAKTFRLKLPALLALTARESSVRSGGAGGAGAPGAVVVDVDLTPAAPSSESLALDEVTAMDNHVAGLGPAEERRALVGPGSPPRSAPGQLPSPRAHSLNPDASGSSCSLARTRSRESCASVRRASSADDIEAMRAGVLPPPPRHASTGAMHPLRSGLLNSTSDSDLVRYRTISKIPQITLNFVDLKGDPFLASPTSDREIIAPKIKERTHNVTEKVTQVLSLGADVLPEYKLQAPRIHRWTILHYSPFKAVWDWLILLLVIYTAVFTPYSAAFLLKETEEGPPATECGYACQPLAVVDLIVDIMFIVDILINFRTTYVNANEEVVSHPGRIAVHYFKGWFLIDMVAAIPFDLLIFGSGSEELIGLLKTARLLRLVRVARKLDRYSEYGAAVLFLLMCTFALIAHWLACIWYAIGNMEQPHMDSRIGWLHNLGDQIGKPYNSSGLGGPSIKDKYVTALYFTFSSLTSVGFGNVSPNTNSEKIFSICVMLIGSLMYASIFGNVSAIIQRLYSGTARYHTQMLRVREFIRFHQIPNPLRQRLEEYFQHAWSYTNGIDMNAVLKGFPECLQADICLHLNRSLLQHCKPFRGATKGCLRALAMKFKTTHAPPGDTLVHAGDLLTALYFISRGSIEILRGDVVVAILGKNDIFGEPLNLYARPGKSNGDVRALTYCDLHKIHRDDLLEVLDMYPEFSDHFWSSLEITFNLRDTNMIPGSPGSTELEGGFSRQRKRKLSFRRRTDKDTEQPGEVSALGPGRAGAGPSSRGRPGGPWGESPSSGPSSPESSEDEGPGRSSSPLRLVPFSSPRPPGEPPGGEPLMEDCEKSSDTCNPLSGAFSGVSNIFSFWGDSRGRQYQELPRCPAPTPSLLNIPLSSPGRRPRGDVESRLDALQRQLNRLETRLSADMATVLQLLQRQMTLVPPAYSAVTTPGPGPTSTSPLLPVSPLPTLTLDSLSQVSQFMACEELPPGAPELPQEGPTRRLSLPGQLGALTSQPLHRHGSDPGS
REPORTED_ENDPOINT: IC50
Could you kindly put the unit after your number?

[ask] Request body: readout IC50, system Voltage-gated inwardly rectifying potassium channel KCNH2 (Homo sapiens), query "Nc1n[nH]c2cccc(C#Cc3cccc(NC(=O)c4ccc(N5CCOCC5)c(C(F)(F)F)c4)c3)c12" . Return the value.
[reply] 3.4 µM

----------
Molecular target: Receptor-type tyrosine-protein kinase FLT3 (Homo sapiens)
Sequence (P36888 whole entry): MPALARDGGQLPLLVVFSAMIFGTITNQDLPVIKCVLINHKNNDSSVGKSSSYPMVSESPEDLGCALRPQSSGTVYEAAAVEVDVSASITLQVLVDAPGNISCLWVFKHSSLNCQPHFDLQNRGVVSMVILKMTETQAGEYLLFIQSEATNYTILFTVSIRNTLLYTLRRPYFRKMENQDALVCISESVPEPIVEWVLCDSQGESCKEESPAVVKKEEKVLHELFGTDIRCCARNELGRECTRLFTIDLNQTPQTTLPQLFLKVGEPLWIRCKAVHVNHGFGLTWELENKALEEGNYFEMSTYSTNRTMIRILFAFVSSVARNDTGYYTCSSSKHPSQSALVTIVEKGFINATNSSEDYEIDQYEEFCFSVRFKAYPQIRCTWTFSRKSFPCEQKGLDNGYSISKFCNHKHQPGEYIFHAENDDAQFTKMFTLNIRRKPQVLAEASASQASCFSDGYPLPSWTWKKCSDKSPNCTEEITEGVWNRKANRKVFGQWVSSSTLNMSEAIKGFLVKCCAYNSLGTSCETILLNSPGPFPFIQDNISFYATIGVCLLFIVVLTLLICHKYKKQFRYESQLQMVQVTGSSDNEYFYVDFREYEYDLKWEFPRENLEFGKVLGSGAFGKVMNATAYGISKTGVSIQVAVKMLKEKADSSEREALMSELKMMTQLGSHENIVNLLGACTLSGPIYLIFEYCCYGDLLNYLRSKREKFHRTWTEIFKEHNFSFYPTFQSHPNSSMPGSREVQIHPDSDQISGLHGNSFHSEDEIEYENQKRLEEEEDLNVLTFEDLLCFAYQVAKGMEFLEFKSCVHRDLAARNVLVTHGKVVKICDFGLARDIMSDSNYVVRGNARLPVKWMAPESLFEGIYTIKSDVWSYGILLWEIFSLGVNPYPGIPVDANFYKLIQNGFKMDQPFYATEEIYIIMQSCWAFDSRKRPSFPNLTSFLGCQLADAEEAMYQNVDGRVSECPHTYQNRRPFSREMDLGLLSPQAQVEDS
Test: Inhibition of FLT3 (unknown origin) in presence of ATP
REPORTED_ENDPOINT: pIC50
For clarity, pIC50 is expressed as the negative log10 of concentration in mol/L.

[ask] Given the molecule "Nc1n[nH]c2cccc(C#Cc3cccc(NC(=O)c4ccc(N5CCOCC5)c(C(F)(F)F)c4)c3)c12" , what is its reported pIC50?
[reply] 6.27

----------
assay: Antiproliferative activity against human L132 cells assessed as cell growth inhibition incubated for 72 hrs by MTT assay; format: cell-based
REPORTED_ENDPOINT: GI50 at 72 h (µM)
# unit: µM | format: bare number

Take a look at these entries with their results.
Cc1cn(-c2cc(C(=O)Nc3cccc(C#Cc4cccc5[nH]nc(N)c45)c3)cc(C(F)(F)F)c2)cn1    10.9
Nc1n[nH]c2cccc(C#Cc3cccc(C(=O)Nc4cc(CN5CCOCC5)cc(C(F)(F)F)c4)c3)c12    16.7

Continue with the next molecule.
[ask] Given the molecule "Nc1n[nH]c2cccc(C#Cc3cccc(C(=O)Nc4cccc(C(F)(F)F)c4)c3)c12" , what is its reported GI50 at 72 h?
[reply] 15.3

----------
target: Serine/threonine-protein kinase B-raf (Homo sapiens)
Sequence (P15056 whole entry): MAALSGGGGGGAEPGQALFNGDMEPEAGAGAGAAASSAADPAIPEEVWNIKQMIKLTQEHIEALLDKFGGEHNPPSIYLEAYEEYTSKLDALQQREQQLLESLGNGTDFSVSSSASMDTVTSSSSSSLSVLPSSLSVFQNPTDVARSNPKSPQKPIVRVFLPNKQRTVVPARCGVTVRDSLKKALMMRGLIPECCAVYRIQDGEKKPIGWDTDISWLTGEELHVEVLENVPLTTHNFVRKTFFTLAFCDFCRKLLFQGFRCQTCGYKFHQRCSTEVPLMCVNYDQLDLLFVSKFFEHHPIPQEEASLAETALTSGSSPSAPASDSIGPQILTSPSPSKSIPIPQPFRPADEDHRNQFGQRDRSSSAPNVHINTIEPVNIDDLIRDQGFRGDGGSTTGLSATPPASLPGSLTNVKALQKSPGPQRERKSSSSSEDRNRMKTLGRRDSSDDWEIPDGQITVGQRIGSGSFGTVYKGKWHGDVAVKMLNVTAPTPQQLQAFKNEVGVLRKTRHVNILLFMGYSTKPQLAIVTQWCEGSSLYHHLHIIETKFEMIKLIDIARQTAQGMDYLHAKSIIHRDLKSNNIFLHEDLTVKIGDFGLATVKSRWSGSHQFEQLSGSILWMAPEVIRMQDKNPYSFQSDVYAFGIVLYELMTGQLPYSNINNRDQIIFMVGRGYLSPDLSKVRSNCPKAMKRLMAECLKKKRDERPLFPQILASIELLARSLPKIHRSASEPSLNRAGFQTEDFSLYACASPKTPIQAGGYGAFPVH
REPORTED_ENDPOINT: IC50 (nM)
# unit: nM | format: bare number

[ask] Given the molecule "Nc1n[nH]c2cccc(C#Cc3cccc(NC(=O)c4ccc(N5CCOCC5)c(C(F)(F)F)c4)c3)c12" , what is its reported IC50?
[reply] 122

----------
biological target: Bcr/Abl fusion protein (Homo sapiens, UniProt P00519); assay: Inhibition of wild type BCR-ABL (unknown origin) incubated for 40 mins in presence of [gamma33P]ATP by scintillation method
pIC50: −log10 of the molar value.
# label = Met if pIC50 >= 7 else Not met

Nc1n[nH]c2cccc(C#Cc3cccc(NC(=O)c4ccc(N5CCOCC5)c(C(F)(F)F)c4)c3)c12    Met

[ask] Does the reported pIC50 for "CN1CCN(Cc2cc(NC(=O)c3cccc(C#Cc4cccc5[nH]nc(N)c45)c3)cc(C(F)(F)F)c2)CC1" fall at or above the 7 mark?
[reply] Met

[ask] Now this one: "Cc1cn(-c2cc(C(=O)Nc3cccc(C#Cc4cccc5[nH]nc(N)c45)c3)cc(C(F)(F)F)c2)cn1"
[reply] Met

[ask] Now this one: "Nc1n[nH]c2cccc(C#Cc3cccc(C(=O)Nc4ccc(CN5CCOCC5)c(C(F)(F)F)c4)c3)c12"
[reply] Not met

[ask] Now this one: "Cc1cn(-c2cc(NC(=O)c3cccc(C#Cc4cccc5[nH]nc(N)c45)c3)cc(C(F)(F)F)c2)cn1"
[reply] Met

[ask] Now this one: "Nc1n[nH]c2cccc(C#Cc3cccc(C(=O)Nc4cc(CN5CCOCC5)cc(C(F)(F)F)c4)c3)c12"
[reply] Not met

----------
assay: Half life in ICR mouse at 5 mg/kg, iv measured up to 8 hrs by LC-MS/MS analysis; type: ADME, organism-based; details: in vivo
REPORTED_ENDPOINT: half-life (h)
# unit: h | format: bare number

[ask] Given the compound "Nc1n[nH]c2cccc(C#Cc3cccc(NC(=O)c4ccc(N5CCOCC5)c(C(F)(F)F)c4)c3)c12" , what is its reported half-life?
[reply] 3.5

----------
test: Cmax in ICR mouse at 10 mg/kg, po measured up to 8 hrs by LC-MS/MS analysis; format: ADME, organism-based; parameters: route oral, dose 10 mg/kg, time <=8; conditions: in vivo
REPORTED_ENDPOINT: Cmax (ng/mL)
# unit: ng/mL | format: bare number

[ask] Given the compound "Nc1n[nH]c2cccc(C#Cc3cccc(NC(=O)c4ccc(N5CCOCC5)c(C(F)(F)F)c4)c3)c12" , what is its reported Cmax?
[reply] 113

----------
experiment: Tmax in ICR mouse at 10 mg/kg, po measured up to 8 hrs by LC-MS/MS analysis; format: ADME, organism-based; settings: in vivo
REPORTED_ENDPOINT: Tmax (min)
# unit: min | format: bare number

[ask] Given the compound "Nc1n[nH]c2cccc(C#Cc3cccc(NC(=O)c4ccc(N5CCOCC5)c(C(F)(F)F)c4)c3)c12" , what is its reported Tmax?
[reply] 36
